Molecular target: MAGE-A11:PCF11 (Homo sapiens (Human), UniProt P43364)
Assay: TR-FRET single point screening at 15 μM
Format: binding
Parameters: unit not given here
Conditions: single point TR-FRET screening at 15 μM against MAGE-A11:PCF11
Description: TR-FRET Assays and High-throughput Screen. Terbium-anti-GST antibody, 1 M Tris pH 7.5 1 M MgCl2 and 1 M DTT were purchased from Invitrogen (Carlsbad, CA), BSA was purchased from Sigma (St. Louis, MO). Dimethyl sulfoxide (DMSO) was purchased from Fisher Scientific (Pittsburgh, PA). Black 384-well low volume plates and 384-well polypropylene compound plates were purchased from Corning Incorporated (Tewksbury, MA). […]

MOLECULE	TR-FRET signal
CCCN(CCCNc1c2ccc(Cl)cc2nc2ccc(OC)cc12)Cc1ccco1 [SJ000520935]	−202.6
COc1ccc(-c2csc(N3CCN(c4cc(C)nc5ccccc45)CC3)n2)cc1OC [SJ000114009]	−53.43
O=S(=O)(c1ccc(Cl)cc1)c1cnc2ccc(F)cc2c1N1CCN(c2ccccc2)CC1 [SJ000117055]	2.112
C=CCOCC(O)CN1CCN(c2cc(C)nc3ccccc23)CC1 (stereo not drawn) [SJ000227652]	−0.207
O=S(=O)(c1ccc(Cl)cc1)N1CCN(c2ccnc3cc(Cl)ccc23)CC1 [SJ000204656]	−34.39
Oc1ccccc1CN(CCCCNc1ccnc2cc(Cl)ccc12)Cc1ccccc1 [SJ000312697]	24.83
COc1ccc(CN2CCC(Nc3ccnc4cc(Cl)ccc34)CC2)cc1 [SJ000523090]	23.72
Fc1ccc(CN2CCC(Nc3ccnc4cc(Cl)ccc34)CC2)cc1F [SJ000523089]	−1.958
Clc1ccc2c(NC3CCN(Cc4ccc(Cl)o4)CC3)ccnc2c1 [SJ000311180]	0.6827

---

target: interaction between GST-MAGEA11 MHD and FAM-PCF11_4 peptide (MAGE-A11:PCF11) (Homo sapiens (Human)); assay: TR-FRET dose response competition assay for disruption of MAGE-A11:PCF11 binding; conditions: Table 8, representative compounds; read-out: TR-FRET IC50
Sequence (P43364 218-429): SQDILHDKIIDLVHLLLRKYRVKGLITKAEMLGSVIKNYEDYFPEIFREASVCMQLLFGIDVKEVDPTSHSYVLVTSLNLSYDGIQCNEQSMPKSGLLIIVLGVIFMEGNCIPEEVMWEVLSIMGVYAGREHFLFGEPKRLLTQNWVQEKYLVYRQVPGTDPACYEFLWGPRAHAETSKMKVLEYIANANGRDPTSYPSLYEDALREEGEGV

MOLECULE	IC50 [µM]
COc1ccc(F)cc1CNCCCNc1ccnc2cc(Oc3ccc(C(C)(C)C)cc3)ccc12 [SJ000311237]	6.29
COc1ccccc1Oc1ccc2c(NCCCNCc3cccc(OC)c3O)ccnc2c1 [SJ000311211]	69.9
N#Cc1cccc(CNCCCNc2ccnc3cc(Cl)ccc23)c1 [SJ000523063]	69.9
COc1ccc(O)c(C(C)NCCCNC2C=CN=C3C=C(Cl)C=CC32)c1 (stereo not drawn) [SJ000311188]	69.9
FC(F)(F)c1ccc2c(NCCCNCc3ccc4c(c3)OCO4)ccnc2c1 [SJ000361106-02]	69.9
COc1cccc(CNCCCNc2ccnc3cc(CCc4ccccc4)ccc23)c1O [SJ000311255]	26.6
CC(C)(C)c1ccc(O)c(CNCCCNc2ccnc3cc(Cl)ccc23)c1 [SJ000311193]	30.4
COc1cccc(CNCCCNc2ccnc3cc(-c4ccc5c(c4)OCO5)ccc23)c1O [SJ000311291]	24.6
COc1ccc(F)cc1CNCCCNc1ccnc2cc(Cc3ccc(C#N)cc3)ccc12 [SJ000311305]	69.9
COc1ccc(Oc2ccc3c(NCCCNCc4cccc5c4OCO5)ccnc3c2)cc1 [SJ000311220]	43.7
COc1cc(NC(C)CCCN)c2ncccc2c1 (stereo not drawn) [SJ000285544]	19
COc1ccc(-c2ccc3c(NCCCNCc4cc(F)ccc4OC)ccnc3c2)cc1 [SJ000311297]	69.9
COc1ccc(F)cc1CNCCCNc1ccnc2cc(-c3ccc(C(F)(F)F)cc3)ccc12 [SJ000311281-01]	13.4
c1ccc(-c2ccc3c(NCCCNCc4cccc5c4OCO5)ccnc3c2)cc1 [SJ000311284-01]	22.2
COc1cccc(CNCCCNc2ccnc3cc(Cc4cccc(C(F)(F)F)c4)ccc23)c1O [SJ000311299]	27.5
COc1cccc(CNCCCNc2ccnc3cc(Cc4c(Cl)cccc4Cl)ccc23)c1O [SJ000311315]	13.8
FC(F)(F)c1ccc2c(NCCCNCc3ccccc3)ccnc2c1 [SJ000361107]	69.9
Fc1ccc(CNCCCNc2ccnc3cc(Cl)ccc23)cc1 [SJ000523062]	69.9
FC(F)(F)c1cccc(CNCCCNc2ccnc3cc(Cl)ccc23)c1 [SJ000521024]	69.9
COc1cccc(CNCCCNc2ccnc3cc(Oc4ccc(Cl)cc4)ccc23)c1O [SJ000311227]	20.7
COc1ccc(F)cc1CNCCCNc1ccnc2cc(-c3cc(C(F)(F)F)cc(C(F)(F)F)c3)ccc12 [SJ000311273]	7.69
CN(C)C1=C2C=CC=CC2C(CNCCCNc2ccnc3cc(Cl)ccc23)C=C1 (stereo not drawn) [SJ000520354]	69.9
COc1ccc(OC(F)(F)F)cc1CNCCCNc1ccnc2cc(Cl)ccc12 [SJ000521035]	69.9
COc1ccc(-c2ccc3c(NCCCNCc4cccc5c4OCO5)ccnc3c2)cc1 [SJ000311296]	69.9
CCCN(CCCCNc1ccnc2cc(Cl)ccc12)Cc1cc(Br)ccc1O [SJ000311196]	69.9
COc1cccc(Oc2ccc3c(NCCCNCc4cccc5c4OCO5)ccnc3c2)c1 [SJ000311216]	36.9
FC(F)(F)Oc1ccc(CNCCCNc2ccnc3cc(Cl)ccc23)cc1 [SJ000521025]	69.9
COc1ccc(F)cc1CNCCNc1ccnc2cc(-c3ccc4c(c3)OCO4)ccc12 [SJ000311293]	29.9
COc1ccc(F)cc1CNCCCNc1ccnc2cc(Cc3ccc(F)cc3)ccc12 [SJ000311245]	35.1
FC(F)(F)c1cccc(CNCCCNc2ccnc3cc(C(F)(F)F)ccc23)c1 [SJ000521047]	69.9
COc1cccc(CNCCCNc2ccnc3cc(Cc4ccc(F)cc4Cl)ccc23)c1O [SJ000311323]	17.6
FC(F)(F)c1ccc(-c2ccc3c(NCCCNCc4cccc5c4OCO5)ccnc3c2)cc1 [SJ000311280-01]	15.7
COc1cccc(CNCCCNc2ccnc3cc(C4CCCCC4)ccc23)c1O [SJ000311263]	32.4
Clc1ccc2c(NCCCNCc3c4ccccc4cc4ccccc34)ccnc2c1 [SJ000361122]	69.9
CCC(CC)c1ccc2c(NCCCNCc3cccc(OC)c3O)ccnc2c1 [SJ000311267]	9.95
Clc1ccc2c(NCCCNCc3ccc4ccccc4c3)ccnc2c1 [SJ000523065]	69.9

Value source: patent US20240246941A1
